# tested.target: Acetylcholine dose-response in isolated ileum from male Hartley guinea-pigs (Cavia porcellus, UniProt H0W1Z3)
# Construct: The ileum was isolated from male Hartley guinea-pigs; from tissue; host or cells: isolated ileum of male Hartley guinea-pigs
# Sequence (H0W1Z3 1-590): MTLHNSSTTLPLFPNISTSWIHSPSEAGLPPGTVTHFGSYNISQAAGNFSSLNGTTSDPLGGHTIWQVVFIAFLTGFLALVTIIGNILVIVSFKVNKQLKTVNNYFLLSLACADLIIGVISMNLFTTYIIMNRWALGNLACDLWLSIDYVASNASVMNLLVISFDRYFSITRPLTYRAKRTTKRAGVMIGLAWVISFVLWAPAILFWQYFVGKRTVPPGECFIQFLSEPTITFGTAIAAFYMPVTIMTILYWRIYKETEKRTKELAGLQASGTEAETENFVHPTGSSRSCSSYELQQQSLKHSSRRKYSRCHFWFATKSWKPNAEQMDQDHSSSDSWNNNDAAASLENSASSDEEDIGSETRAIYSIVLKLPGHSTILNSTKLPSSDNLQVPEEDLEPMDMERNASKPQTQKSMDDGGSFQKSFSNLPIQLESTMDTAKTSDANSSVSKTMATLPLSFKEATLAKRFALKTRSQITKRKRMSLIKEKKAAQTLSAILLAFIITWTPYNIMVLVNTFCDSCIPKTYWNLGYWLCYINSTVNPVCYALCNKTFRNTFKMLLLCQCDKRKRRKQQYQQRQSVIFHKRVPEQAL
# assay.overview: Anti-acetylcholinergic effect, isolated guinea-pig ileum (KB by Furchgott method)
# Design: species or system guinea-pig (male Hartley)
# stated.conditions: dissociation constant KB (M) of antagonist vs acetylcholine; test drug applied 30 minutes before; 28° C.; read-out: -Log KB (anti-acetylcholinergic effect) (converted)
# Method: The ileum was isolated from male Hartley guinea-pigs (5 to 8 weeks of age). The preparation was suspended in a bath containing Locke-Ringer nutritional solution (NaCl: 154 mM, KCl: 5.6 mM, CaCl2.H2 O: 2.2 mM, MgCl2. 6H2 O: 2.1 mM, NaHCO3 : 5.9 mM, glucose: 2.8 mM) bubbled with 95% O2 +5% CO2 mixed gas at 28° C., and then 0.5 g weight was loaded and tention through isotonic transducer was recorded using a recorder. […]
recorded.metric: Kb (M)

Some compounds with known Kb results, for comparison:
>  <compound>
CN(CCC=C1c2ccccc2C=Cc2ccccc21)CCCCC(=O)O [Example 17]

>  <Kb / M>
9.12e-07

$$$$
>  <compound>
CN(CCC=C1c2ccccc2C=Cc2ccccc21)CCCCCC(=O)O [Example 18]

>  <Kb / M>
5.5e-07

$$$$
>  <compound>
CN(CCC=C1c2ccccc2C=Cc2ccccc21)CC(=O)O [Example 16]

>  <Kb / M>
1.26e-05

$$$$

a. CN(CCC=C1c2ccccc2COc2ccccc21)CCCCCC(=O)O [Example 23]
b. CN(CCC=C1c2ccccc2C=Cc2ccccc21)CCC(=O)O [Example 14]
Problem: Which entry shows the lesser value of Kb here, a or b ? Identify your pick by its label.
Result: a
(a: 3.16e-06 M, b: 1.51e-05 M)

A. CN(CCC=C1c2ccccc2COc2ccccc21)CCC(=O)O [Example 20]
B. CN(CCC=C1c2ccccc2C=Cc2ccccc21)CCCC(=O)O [Example 15]
C. CN(CCC=C1c2ccccc2COc2ccccc21)CC(=O)O [Example 19]
Problem: Returns the items ordered by Kb, from maximum to minimum. # respond with the labels, arranged in the requested order
Result: C, A, B
(C: 4.9e-05 M, A: 7.08e-06 M, B: 2.57e-06 M)

====

# tested.target: Histamine dose-response in isolated ileum from male Hartley guinea-pigs (Cavia porcellus)
# Construct: The ileum was isolated from male Hartley guinea-pigs; from tissue; host or cells: isolated ileum of male Hartley guinea-pigs
# Sequence (P31389 whole entry): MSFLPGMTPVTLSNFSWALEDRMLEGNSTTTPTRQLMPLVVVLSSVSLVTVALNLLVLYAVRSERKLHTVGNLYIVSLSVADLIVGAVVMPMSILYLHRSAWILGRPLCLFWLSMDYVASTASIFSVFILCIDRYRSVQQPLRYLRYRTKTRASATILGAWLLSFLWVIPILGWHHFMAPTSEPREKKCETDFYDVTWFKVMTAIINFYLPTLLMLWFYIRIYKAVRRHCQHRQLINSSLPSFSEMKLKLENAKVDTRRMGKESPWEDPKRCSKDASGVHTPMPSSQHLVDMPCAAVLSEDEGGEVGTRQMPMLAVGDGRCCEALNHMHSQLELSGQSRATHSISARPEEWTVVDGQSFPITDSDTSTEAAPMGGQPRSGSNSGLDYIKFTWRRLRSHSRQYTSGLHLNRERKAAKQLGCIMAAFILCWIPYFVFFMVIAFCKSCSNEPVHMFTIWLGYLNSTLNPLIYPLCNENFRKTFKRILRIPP
# assay.overview: Anti-histaminic effect, isolated guinea-pig ileum (KB by Furchgott method)
# Design: species or system guinea-pig (male Hartley)
# stated.conditions: dissociation constant KB (M) of antagonist vs histamine; test drug applied 30 minutes before; 28° C.; read-out: -Log KB (anti-histaminic effect) (converted)
recorded.metric: Kb (M)

Some compounds with known Kb results, for comparison:
>  <compound>
CN(CCC=C1c2ccccc2COc2ccccc21)CC(=O)O [Example 19]

>  <tested.target>
Histamine dose-response in isolated ileum from male Hartley guinea-pigs (Cavia porcellus)

>  <recorded.metric>
Kb

>  <reading.unit>
M

>  <quantitative.result>
1.55e-08

$$$$
>  <compound>
CN(CCC=C1c2ccccc2COc2ccccc21)CCCC(=O)O [Example 21]

>  <tested.target>
Histamine dose-response in isolated ileum from male Hartley guinea-pigs (Cavia porcellus)

>  <recorded.metric>
Kb

>  <reading.unit>
M

>  <quantitative.result>
3.47e-09

$$$$
>  <compound>
CN(CCC=C1c2ccccc2C=Cc2ccccc21)CCCC(=O)O [Example 15]

>  <tested.target>
Histamine dose-response in isolated ileum from male Hartley guinea-pigs (Cavia porcellus)

>  <recorded.metric>
Kb

>  <reading.unit>
M

>  <quantitative.result>
4.27e-09

$$$$
>  <compound>
CN(CCC=C1c2ccccc2C=Cc2ccccc21)CCCCCC(=O)O [Example 18]

>  <tested.target>
Histamine dose-response in isolated ileum from male Hartley guinea-pigs (Cavia porcellus)

>  <recorded.metric>
Kb

>  <reading.unit>
M

>  <quantitative.result>
1.2e-08

$$$$
>  <compound>
CN(CCC=C1c2ccccc2COc2ccccc21)CCC(=O)O [Example 20]

>  <tested.target>
Histamine dose-response in isolated ileum from male Hartley guinea-pigs (Cavia porcellus)

>  <recorded.metric>
Kb

>  <reading.unit>
M

>  <quantitative.result>
3.09e-09

$$$$
>  <compound>
CN(CCC=C1c2ccccc2C=Cc2ccccc21)CCCCC(=O)O [Example 17]

>  <tested.target>
Histamine dose-response in isolated ileum from male Hartley guinea-pigs (Cavia porcellus)

>  <recorded.metric>
Kb

>  <reading.unit>
M

>  <quantitative.result>
6.17e-09

$$$$
>  <compound>
CN(CCC=C1c2ccccc2C=Cc2ccccc21)CC(=O)O [Example 16]

>  <tested.target>
Histamine dose-response in isolated ileum from male Hartley guinea-pigs (Cavia porcellus)

>  <recorded.metric>
Kb

>  <reading.unit>
M

>  <quantitative.result>
3.16e-08

$$$$
>  <compound>
CN(CCC=C1c2ccccc2C=Cc2ccccc21)CCC(=O)O [Example 14]

>  <tested.target>
Histamine dose-response in isolated ileum from male Hartley guinea-pigs (Cavia porcellus)

>  <recorded.metric>
Kb

>  <reading.unit>
M

>  <quantitative.result>
6.92e-09

$$$$

I. CN(CCC=C1c2ccccc2COc2ccccc21)CCCCCC(=O)O [Example 23]
II. CN(CCC=C1c2ccccc2COc2ccccc21)CCCCC(=O)O [Example 22]
Problem: Of I and II , which one carries the higher reported Kb? Identify your pick by its label.
Result: I
(I: 7.76e-09 M, II: 4.37e-09 M)

====

# tested.target: Acetylcholine dose-response in isolated ileum from male Hartley guinea-pigs (Cavia porcellus)
# Construct: The ileum was isolated from male Hartley guinea-pigs; from tissue; host or cells: isolated ileum of male Hartley guinea-pigs
# assay.overview: Anti-acetylcholinergic effect, isolated guinea-pig ileum (KB by Furchgott method)
# Design: species or system guinea-pig (male Hartley)
# stated.conditions: dissociation constant KB (M) of antagonist vs acetylcholine; test drug applied 30 minutes before; 28° C.; read-out: -Log KB (anti-acetylcholinergic effect) (converted)
recorded.metric: Kb (M)

>  <molecule>
CN(CCC=C1c2ccccc2COc2ccccc21)CCCC(=O)O

>  <recorded.metric>
Kb

>  <quantitative.result>
7.24e-06

$$$$
>  <molecule>
CN(CCC=C1c2ccccc2COc2ccccc21)CCCCC(=O)O

>  <recorded.metric>
Kb

>  <quantitative.result>
1e-05

$$$$
>  <molecule>
CN(C)CCC=C1c2ccccc2C=Cc2ccccc21 [cyclobenzaprine, Cyclobenzaprine, reference compound]

>  <recorded.metric>
Kb

>  <quantitative.result>
7.59e-09

$$$$
>  <molecule>
CN(C)CCC=C1c2ccccc2COc2ccccc21 [doxepin, Doxepin, reference compound]

>  <recorded.metric>
Kb

>  <quantitative.result>
5.89e-08

$$$$
